B1: ZNF449 (parent)
chain: RIHSGEEPHKCPECGKRFLRSSDL

- Variants of: B1
- Protocol Summary: protein stability index of a GFP-peptide fusion (GPS, HEK-293T) (PSI 1-6); higher = more stable;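 also: lentivirally expressed fusions sorted by FACS into six bins by GFP to DsRed ratio, PSI derived from sequencing read proportions per bin multiplied by bin number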
- Measurement Setup: c terminus: a fixed tail appended
Using protein stability index as the sorting value, the categories are range A = under 3, range B = from 3 up to 4, range C = 4 and over

Completed entries (count: 2):
Sequence Variant: H9Y
Class Name: range B
//
Sequence Variant: K16Y
Class Name: range B

Dear colleague, I would appreciate it if you could identify the bin for `S4L` and reply at your convenience.
range B

Dear colleague, I would appreciate it if you could identify the bin for `K10R` and reply at your convenience.
range B
